Test: yeast TOR pathway reporter LAP4-GFP change – cell-based, cherry picks, flow cytometry, mother/daughter gates, confirmation (AID 2271);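 also: ratio of sample to DMSO plate mean so 100% equals DMSO level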
Conditions: S. cerevisiae LAP4-GFP strain, 3 h, measured here: mother cell gate response, at 10 µM, stronger effect = higher value, 100 means same as DMSO control
Listed below: GFP response relative to DMSO values for each entry.
Value expressed in %; do not type the unit.

compound | unit of measure | GFP response relative to DMSO
c1cnc2c(c1)ccc1cccnc12 | % | 117
CC(C)CC(=O)Nc1ccc2oc(-c3ccncc3)nc2c1 | % | 101
CC(=O)[C@H]1CC[C@H]2[C@@H]3CCC4=CC(=O)CC[C@]4(C)[C@H]3[C@H](O)C[C@]12C | % | 98.5
C[C@]12CCC(=O)C=C1CC[C@@H]1[C@@H]2[C@@H](O)C[C@@]2(C)[C@H]1CC[C@]2(O)C(=O)CO | % | 98.3
O=C(NCCN1CCN(c2ccccc2)CC1)c1cccc(Br)c1 | % | 96.5
O=C(O)CCNC(=O)c1ccccc1 | % | 103
CC(=O)CSc1ncnc2c1cnn2-c1ccccc1 | % | 106
NS(=O)(=O)c1cc2c(cc1C(F)(F)F)NC(Cc1ccccc1)NS2(=O)=O (stereo not given) | % | 97.5

GFP response relative to DMSO reported for this compound c1ccc2c(c1)CCOC2CNCCCN1CCCCC1 (stereo not given) : 94.2

GFP response relative to DMSO reported for this compound N#C/C(C(N)=O)=c1/ccc2c(c1)N1C3=C(CCCC3)CC3CCCCC31N=2 (stereo not given) : 123

###

Experiment: hit retest on RPL19A-GFP reporter strain – cell-based, S. cerevisiae, flow cytometry, cherry picks, mother/daughter gates, confirmation (AID 2270)
Conditions: 3 h, measured here: mother cell gate, at 10 µM, stronger effect = lower value, 100 = same GFP as DMSO wells
Listed below: GFP response vs DMSO values for each entry.
Value expressed in %; do not type the unit.

molecule | unit of measure | GFP response vs DMSO
CC(=O)[C@H]1CC[C@H]2[C@@H]3CCC4=CC(=O)CC[C@]4(C)[C@H]3CC[C@]12C | % | 100
CN(c1ccccc1)c1ccc(/C=c2\s/c(=C(/C#N)C(=O)C(C)(C)C)n(Cc3ccco3)c2=O)cc1 | % | 116
O=c1[nH]cc(F)c(=O)[nH]1 | % | 85.4

GFP response vs DMSO reported for this molecule c1ccc2c(c1)CCOC2CNCCCN1CCCCC1 (configuration not stated) : 102

GFP response vs DMSO reported for this molecule O=[N+]([O-])c1ccc(O)c2ncccc12 : 99.2

GFP response vs DMSO reported for this molecule Cc1ccc(SC(CC(=O)c2ccc(C(C)(C)C)cc2)C(=O)O)cc1 (configuration not stated) : 97.3

GFP response vs DMSO reported for this molecule CN1CCN2c3ccccc3Cc3ccccc3C2C1 (configuration not stated) : 100

GFP response vs DMSO reported for this molecule N=c1c(C(=O)NCc2ccco2)cc2c(=O)n3ccccc3nc2n1CCc1ccccc1 : 95.8

GFP response vs DMSO reported for this molecule O=c1cnn([C@@H]2O[C@H](CO)[C@@H](O)[C@H]2O)c(=O)[nH]1 : 81.6

GFP response vs DMSO reported for this molecule Nc1[nH]c(=O)ncc1F : 78.1

GFP response vs DMSO reported for this molecule CC(=O)CSc1ncnc2c1cnn2-c1ccccc1 : 100

GFP response vs DMSO reported for this molecule CC(C)(C)c1ccc(C(=O)CC(Sc2ccc(Cl)cc2)C(=O)O)cc1 (configuration not stated) : 100
